assay: in vitro; conditions: human, Caco-2
REPORTED_PROPERTY: Papp A→B

Observe how each entry below is paired with its result.
- SMILES_ENTRY: "CCC(=O)OC[C@H]1O[C@@](C#N)(c2ccc3c(N)ncnn23)[C@H](OC(=O)CC)[C@@H]1OC(=O)CC"
  RESULT: "< 0.1 ×10⁻⁶ cm/s"
- SMILES_ENTRY: "CC(C)[C@H](N)C(=O)OC[C@H]1O[C@@](C#N)(c2ccc3c(N)ncnn23)[C@H](O)[C@@H]1O"
  RESULT: "0.55 ×10⁻⁶ cm/s"

Please look at this compound and report its Papp A→B: N#C[C@@]1(c2ccc3c(N)ncnn23)O[C@H](CO)[C@@H](O)[C@H]1O
0.17 ×10⁻⁶ cm/s

Name the recorded Papp A→B of the compound listed here: CC(=O)OC[C@H]1O[C@@](C#N)(c2ccc3c(N)ncnn23)[C@H](OC(C)=O)[C@@H]1OC(C)=O
0.9 ×10⁻⁶ cm/s

----------
assay: in vivo; details: chlorocebus sabaeus, iv, 10 mg/kg
REPORTED_PROPERTY: Vd at 0.5 h (L/kg)
I only need the number, in L/kg, no unit after it.

Query Vd at 0.5 h for CCC(CC)COC(=O)[C@H](C)N[P@](=O)(OC[C@H]1O[C@@](C#N)(c2ccc3c(N)ncnn23)[C@H](O)[C@@H]1O)Oc1ccccc1 (stereo in doubt)
0.94

----------
assay: in vivo; conditions: cynomolgus monkey, iv, 10 mg/kg
REPORTED_PROPERTY: Cmax at 0.5 h

Indicate its recorded Cmax at 0.5 h; the compound in question is CCC(CC)COC(=O)[C@H](C)N[P@](=O)(OC[C@H]1O[C@@](C#N)(c2ccc3c(N)ncnn23)[C@H](O)[C@@H]1O)Oc1ccccc1 (stereo in doubt)
22.7 µM

----------
test: in vivo; conditions: dog, po
REPORTED_PROPERTY: bioavailability (%)
The reply should contain only the number, in %.

Give the reported bioavailability for this molecule. N#C[C@@]1(c2ccc3c(N)ncnn23)O[C@H](CO)[C@@H](O)[C@H]1O
89

----------
Listed molecules paired with reported selectivity ratio
assay: in vitro; conditions: human, HEp-2 cells, Ratio CC50/EC50

- MOLECULE: "C[C@H](NP(=O)(OC[C@H]1O[C@@](C#N)(c2ccc3c(N)ncnn23)[C@H](O)[C@@H]1O)Oc1ccccc1)C(=O)OC(C)(C)C (stereo not given in full)"
  selectivity ratio: "> 22"

Give the value of selectivity ratio reported for the following: C#C[C@@]1(c2ccc3c(N)ncnn23)O[C@H](COP(=O)(N[C@@H](C)C(=O)OCC(CC)CC)Oc2ccccc2)[C@@H](O)[C@H]1O (stereo not given in full)
> 133

For CCOC(=O)[C@H](C)NP(=O)(OC[C@H]1O[C@@](C#N)(c2ccc3c(N)ncnn23)[C@H](O)[C@@H]1O)Oc1ccccc1 (stereo not given in full) , write its selectivity ratio.
> 243

Output measured selectivity ratio for this item: CC(C)OC(=O)[C@H](C)NP(=O)(OC[C@H]1O[C@@](C#N)(c2ccc3c(N)ncnn23)[C@H](O)[C@@H]1O)Oc1ccccc1 (stereo not given in full)
> 277

Supply selectivity ratio value. Item: CCOC(=O)[C@H](C)NP(=O)(N[C@@H](C)C(=O)OCC)OC[C@H]1O[C@@](C#N)(c2ccc3c(N)ncnn23)[C@H](O)[C@@H]1O
> 15

----------
Listed below: CC50 values for each entry.
assay: in vitro; conditions: human, HEp-2 cells

- COMPOUND: "CCC(=O)OC[C@H]1O[C@@](C#N)(c2ccc3c(N)ncnn23)[C@H](OC(=O)CC)[C@@H]1OC(=O)CC"
  RESULT: "> 100 µM"

Look up and state reported CC50 for CCOC(=O)[C@H](C)NP(=O)(N[C@@H](C)C(=O)OCC)OC[C@H]1O[C@@](C#N)(c2ccc3c(N)ncnn23)[C@H](O)[C@@H]1O
> 100 µM

Could you please provide reported CC50 for CC(C)OC(=O)[C@H](C)NP(=O)(OC[C@H]1O[C@@](C#N)(c2ccc3c(N)ncnn23)[C@H](O)[C@@H]1O)Oc1ccccc1 (stereo partly drawn) ? Thanks!
> 100 µM

----------
CC50 values by entry
test: in vitro; details: human, HEp-2 cells

Some compounds with recorded CC50:
- COMPOUND: "C#C[C@@]1(c2ccc3c(N)ncnn23)O[C@H](CO)[C@@H](O)[C@H]1O"
  RESULT: "> 100 µM"
- COMPOUND: "C#C[C@@]1(c2ccc3c(N)ncnn23)O[C@H](COP(=O)(N[C@@H](C)C(=O)OCC(CC)CC)Oc2ccccc2)[C@@H](O)[C@H]1O (stereo partly drawn)"
  RESULT: "> 100 µM"
- COMPOUND: "C[C@H](NP(=O)(OC[C@H]1O[C@@](C#N)(c2ccc3c(N)ncnn23)[C@H](O)[C@@H]1O)Oc1ccccc1)C(=O)OC(C)(C)C (stereo partly drawn)"
  RESULT: "> 100 µM"
- COMPOUND: "N#C[C@@]1(c2ccc3c(N)ncnn23)O[C@H](CO)[C@@H](O)[C@H]1O [GS-441524]"
  RESULT: "> 100 µM"

Write down CC50 measured for item C[C@H](NP(=O)(OC[C@H]1O[C@@](C#N)(c2ccc3c(N)ncnn23)[C@H](O)[C@@H]1O)Oc1ccccc1)C(=O)OC1CCCC1 (stereo partly drawn)
> 80 µM

Dear colleague, please send me the reported CC50 for CC(=O)OC[C@H]1O[C@@](C#N)(c2ccc3c(N)ncnn23)[C@H](OC(C)=O)[C@@H]1OC(C)=O when you can.
> 100 µM

For the compound C[C@@]1(O)[C@H](O)[C@@H](CO)O[C@@]1(C#N)c1ccc2c(N)ncnn12 , report CC50.
> 100 µM

Given CC(C)[C@H](N)C(=O)OC[C@H]1O[C@@](C#N)(c2ccc3c(N)ncnn23)[C@H](O)[C@@H]1O , respond with its CC50.
> 100 µM

src = ChEMBL document CHEMBL4823256
